target: LIM domain kinase 1 (Homo sapiens)
ATTRIBUTE MEASURED: IC50 (µM)
The response must be a number in µM with no trailing unit.

For orientation, consider the following solved cases.
INSERT INTO assay_data (entry_smiles, attribute_measured, measured_value) VALUES
  ('Nc1ncnc2c1sc1nc(-c3ccccc3)ccc12', 'IC50', 0.7),
  ('NC(=O)c1sc2nc(-c3cccnc3)ccc2c1N', 'IC50', 7.1),
  ('Cc1cc(-c2ccc(Cl)cc2)c2c(N)c(C(N)=O)sc2n1', 'IC50', 37),
  ('NC(=O)c1sc2nc(-c3ccc4c(c3)OCCO4)cc(C(F)(F)F)c2c1N', 'IC50', 1.3);

Input: Lab note: record IC50 of `Cc1ccc2c(N)c(C(N)=O)sc2n1` tested on LIM domain kinase 1 (Homo sapiens).
Output: 56

Input: Give IC50 for `Nc1ncnc2c1sc1c(-c3ccccc3)cccc12` tested on LIM domain kinase 1 (Homo sapiens).
Output: 6.1

Input: Look up and report IC50, with LIM domain kinase 1 (Homo sapiens) as system, for `Cc1ccnc2sc(C(N)=O)c(N)c12`
Output: 11

Input: Lab note: record IC50 of `NC(=O)c1sc2cccnc2c1N` tested on LIM domain kinase 1 (Homo sapiens).
Output: 92

====

biological target: LIM domain kinase 1 (Homo sapiens); experiment: Inhibition of LIMK1 (unknown origin) using cofilin-2 as substrate at 30 uM after 60 mins by Kinase-Glo assay relative to control
Sequence (P53667 whole entry, looked up, the tested form may be a part): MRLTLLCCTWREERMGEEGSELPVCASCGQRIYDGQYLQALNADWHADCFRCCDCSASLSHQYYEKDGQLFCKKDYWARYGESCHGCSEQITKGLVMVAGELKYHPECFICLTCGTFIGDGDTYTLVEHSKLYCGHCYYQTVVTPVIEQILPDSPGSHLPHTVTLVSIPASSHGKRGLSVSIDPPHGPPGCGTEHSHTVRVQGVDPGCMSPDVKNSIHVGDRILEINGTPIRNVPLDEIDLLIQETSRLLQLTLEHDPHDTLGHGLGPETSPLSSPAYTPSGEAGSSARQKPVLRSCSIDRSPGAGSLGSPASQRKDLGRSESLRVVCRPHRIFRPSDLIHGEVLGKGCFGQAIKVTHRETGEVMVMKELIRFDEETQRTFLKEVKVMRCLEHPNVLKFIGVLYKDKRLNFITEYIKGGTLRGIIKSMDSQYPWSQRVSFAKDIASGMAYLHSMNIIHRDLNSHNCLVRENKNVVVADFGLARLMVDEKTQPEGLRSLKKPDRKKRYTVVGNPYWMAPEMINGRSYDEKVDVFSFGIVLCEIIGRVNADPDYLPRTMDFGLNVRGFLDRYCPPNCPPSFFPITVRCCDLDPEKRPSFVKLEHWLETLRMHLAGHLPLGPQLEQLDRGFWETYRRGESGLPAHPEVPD
ATTRIBUTE MEASURED: inhibition (%)
Provide the reading as a plain figure in %.

Consider the following illustrative entries.
INSERT INTO results (entry_smiles, measured_value) VALUES
  ('NC(=O)c1sc2ncc3c(c2c1N)CCCC3', 16),
  ('NC(=O)c1sc2ncccc2c1N', 40),
  ('Nc1c(C(=O)Nc2ccccc2)sc2nccc(Nc3ccccc3)c12', 0),
  ('Nc1c(C(=O)N2CCOCC2)sc2ncccc12', 0),
  ('CN(C)c1ccnc2sc(C(N)=O)c(N)c12', 67);

Input: # return recorded inhibition for input `NC(=O)c1sc2nc3c(c(-c4cccs4)c2c1N)CCC3`
Output: 50

Input: Provide measured inhibition value, entry: `Cc1ccnc2sc(C(N)=O)c(N)c12`
Output: 79

Input: In one line, give reported inhibition of the entry `Nc1c(C(=O)NC2CCCCC2)sc2ncccc12` .
Output: 2

Input: Supply inhibition value. Item: `NC(=O)c1sc2nccc(Nc3ccccc3)c2c1N`
Output: 98

Input: Determine its reported inhibition: `Nc1c(C(=O)Nc2ccccc2)sc2ncccc12`
Output: 15

====

Observed pIC50 for LIM domain kinase 1 (Homo sapiens), reported per entry below.
pIC50: −log10 of the molar value.

# count of solved cases: 2
INSERT INTO results (entry_smiles, measured_value) VALUES
  ('NC(=O)c1oc2ccccc2c1N', '< 4.00'),
  ('CCOC(=O)c1sc2ccccc2c1N', '< 4.00');

Next compound, please.
Input: Please give measured pIC50 of the following entry: `NC(=O)c1sc2ccccc2c1O`
Output: < 4.00
